# target or system: histamine H1 receptor (Homo sapiens)
# Sequence (P35367 whole entry): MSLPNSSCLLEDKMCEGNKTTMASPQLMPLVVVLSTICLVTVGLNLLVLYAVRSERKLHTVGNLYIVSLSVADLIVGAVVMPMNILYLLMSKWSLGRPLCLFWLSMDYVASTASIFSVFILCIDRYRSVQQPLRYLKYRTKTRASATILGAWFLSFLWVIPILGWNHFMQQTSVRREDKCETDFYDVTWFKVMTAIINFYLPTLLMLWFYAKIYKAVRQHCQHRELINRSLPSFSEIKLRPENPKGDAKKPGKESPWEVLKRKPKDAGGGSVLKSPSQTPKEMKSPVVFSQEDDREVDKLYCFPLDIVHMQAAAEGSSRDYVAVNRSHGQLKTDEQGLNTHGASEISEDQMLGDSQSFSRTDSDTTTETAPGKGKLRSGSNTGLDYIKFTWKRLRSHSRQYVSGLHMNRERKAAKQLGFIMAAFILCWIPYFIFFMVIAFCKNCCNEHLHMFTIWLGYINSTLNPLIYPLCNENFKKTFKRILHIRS
# measurement protocol: Receptor-mediated inositol phosphate hydrolysis, transfected HEK293 cells
# applied conditions: mean ± S.E.M.
assay readout: pIC50
Answers are plain numbers, as −log10 of the molar value.

(Q) Any idea what its pIC50 is? The molecule is COc1ccc2c(c1)[C@@H](c1cccc(Cl)c1)C[C@H](N(C)C)C2 (single isomer, unassigned)
(A) 7.32

----------
# measurement protocol: Plasma and brain concentrations after subcutaneous administration
# Format: in vivo, mice
# applied conditions: mouse, plasma; 90 min after 3.0 mg/kg subcutaneous; mean (SEM)
assay readout: concentration at 90 min

(Q) Any idea what its concentration at 90 min is? The compound is CN(C)C1CCc2c(cccc2-c2ccccc2F)C1 (single isomer, unassigned; (+)) [(+)-5-FPT]
(A) 70 ng/mL
